System: Listeria monocytogenes
Test: Bacteriostatic activity against Listeria monocytogenes ATCC 19115 after 20 hrs by broth microdilution method
Assay type: functional
Conditions: ATCC 19115, 20 h
Measured MIC of individual entries

compound: CCN(CC)S(=O)(=O)c1ccc(C(=O)Nc2nnc(-c3ccc(Cl)cc3)o2)cc1
unitInfo: mg/L
MIC: 16
//
compound: CN(C)S(=O)(=O)c1ccc(C(=O)Nc2nnc(-c3ccc(F)cc3)o2)cc1
unitInfo: mg/L
MIC: 32
//
compound: O=C(Nc1nnc(-c2cccs2)o1)c1ccc(S(=O)(=O)N2CCCCC2)cc1
unitInfo: mg/L
MIC: 32
//
compound: COc1ccc(-c2nnc(NC(=O)c3ccc(S(=O)(=O)N4C[C@H](C)C[C@H](C)C4)cc3)o2)cc1 (mixture of isomers)
unitInfo: mg/L
MIC: 4
//
compound: COc1cccc(-c2nnc(NC(=O)c3ccc(S(=O)(=O)N(C)CC4CCCO4)cc3)o2)c1 (stereo not drawn)
unitInfo: mg/L
MIC: 32
//
compound: C[C@@H]1C[C@H](C)CN(S(=O)(=O)c2ccc(C(=O)Nc3nnc(-c4ccc(Cl)cc4)o3)cc2)C1 (mixture of isomers)
unitInfo: mg/L
MIC: 2
//
compound: C[C@@H]1C[C@H](C)CN(S(=O)(=O)c2ccc(C(=O)Nc3nnc(-c4cccs4)o3)cc2)C1 (mixture of isomers)
unitInfo: mg/L
MIC: 4
//
compound: CC1CCCCN1S(=O)(=O)c1ccc(C(=O)Nc2nnc(-c3cccs3)o2)cc1 (stereo not drawn)
unitInfo: mg/L
MIC: 16
//
compound: O=C(Nc1nnc(-c2ccc(Cl)cc2)o1)c1ccc(S(=O)(=O)NC2CC2)cc1
unitInfo: mg/L
MIC: 16
//
compound: CN(C)S(=O)(=O)c1ccc(C(=O)Nc2nnc(-c3ccc(Cl)cc3)o2)cc1
unitInfo: mg/L
MIC: 64
//
compound: C[C@@H]1C[C@H](C)CN(S(=O)(=O)c2ccc(C(=O)Nc3nnc(-c4ccc([N+](=O)[O-])cc4)o3)cc2)C1 (mixture of isomers)
unitInfo: mg/L
MIC: 32
//
compound: CN[C@H](CC(C)C)C(=O)N[C@H]1C(=O)N[C@@H](CC(N)=O)C(=O)N[C@H]2C(=O)N[C@H]3C(=O)N[C@H](C(=O)N[C@H](C(=O)O)c4cc(O)cc(O)c4-c4cc3ccc4O)[C@H](O)c3ccc(c(Cl)c3)Oc3cc2cc(c3O[C@@H]2O[C@H](CO)[C@@H](O)[C@H](O)[C@H]2O[C@H]2C[C@](C)(N)[C@H](O)[C@H](C)O2)Oc2ccc(cc2Cl)[C@H]1O
unitInfo: mg/L
MIC: 1
//
compound: C[C@@H]1C[C@H](C)CN(S(=O)(=O)c2ccc(C(=O)Nc3nnc(-c4ccc(Br)cc4)o3)cc2)C1 (mixture of isomers)
unitInfo: mg/L
MIC: 4

---

Measured MIC of individual entries
System: Enterococcus faecalis
Test: Bacteriostatic activity against vancomycin-resistant Enterococcus faecalis ATCC 51575 after 20 hrs by broth microdilution method
Format: functional
Settings: ATCC 51575, 20 h

molecule: C[C@@H]1C[C@H](C)CN(S(=O)(=O)c2ccc(C(=O)Nc3nnc(-c4ccc(F)cc4)o3)cc2)C1 (mixture of isomers)
unitInfo: µg/mL
boundOperator: =
MIC: 4
//
molecule: CN[C@H](CC(C)C)C(=O)N[C@H]1C(=O)N[C@@H](CC(N)=O)C(=O)N[C@H]2C(=O)N[C@H]3C(=O)N[C@H](C(=O)N[C@H](C(=O)O)c4cc(O)cc(O)c4-c4cc3ccc4O)[C@H](O)c3ccc(c(Cl)c3)Oc3cc2cc(c3O[C@@H]2O[C@H](CO)[C@@H](O)[C@H](O)[C@H]2O[C@H]2C[C@](C)(N)[C@H](O)[C@H](C)O2)Oc2ccc(cc2Cl)[C@H]1O
unitInfo: µg/mL
boundOperator: >
MIC: 128
//
molecule: O=C(Nc1nnc(-c2ccc(Cl)cc2)o1)c1ccc(S(=O)(=O)NC2CC2)cc1
unitInfo: µg/mL
boundOperator: =
MIC: 16
//
molecule: O=C(Nc1nnc(-c2ccc(Cl)cc2)o1)c1ccc(S(=O)(=O)N2CCCC2)cc1
unitInfo: µg/mL
boundOperator: =
MIC: 16
//
molecule: C[C@@H]1C[C@H](C)CN(S(=O)(=O)c2ccc(C(=O)Nc3nnc(-c4ccc(Cl)cc4)o3)cc2)C1 (mixture of isomers)
unitInfo: µg/mL
boundOperator: =
MIC: 2
//
molecule: C[C@@H]1C[C@H](C)CN(S(=O)(=O)c2ccc(C(=O)Nc3nnc(-c4cccs4)o3)cc2)C1 (mixture of isomers)
unitInfo: µg/mL
boundOperator: =
MIC: 4
//
molecule: C#CCNS(=O)(=O)c1ccc(C(=O)Nc2nnc(-c3ccc(Cl)cc3)o2)cc1
unitInfo: µg/mL
boundOperator: =
MIC: 64
//
molecule: COc1cccc(-c2nnc(NC(=O)c3ccc(S(=O)(=O)N(C)CC4CCCO4)cc3)o2)c1 (configuration not stated)
unitInfo: µg/mL
boundOperator: =
MIC: 32
//
molecule: COc1ccc(-c2nnc(NC(=O)c3ccc(S(=O)(=O)N4C[C@H](C)C[C@H](C)C4)cc3)o2)cc1 (mixture of isomers)
unitInfo: µg/mL
boundOperator: =
MIC: 4
//
molecule: O=C(Nc1nnc(-c2cccs2)o1)c1ccc(S(=O)(=O)N2CCCCC2)cc1
unitInfo: µg/mL
boundOperator: =
MIC: 64
//
molecule: CN(C)S(=O)(=O)c1ccc(C(=O)Nc2nnc(-c3ccc(F)cc3)o2)cc1
unitInfo: µg/mL
boundOperator: =
MIC: 32
//
molecule: C[C@@H]1C[C@H](C)CN(S(=O)(=O)c2ccc(C(=O)Nc3nnc(-c4ccc([N+](=O)[O-])cc4)o3)cc2)C1 (mixture of isomers)
unitInfo: µg/mL
boundOperator: =
MIC: 32
//
molecule: C[C@@H]1C[C@H](C)CN(S(=O)(=O)c2ccc(C(=O)Nc3nnc(-c4cccc(C#N)c4)o3)cc2)C1 (mixture of isomers)
unitInfo: µg/mL
boundOperator: =
MIC: 16
//
molecule: CC1CCCCN1S(=O)(=O)c1ccc(C(=O)Nc2nnc(-c3cccs3)o2)cc1 (configuration not stated)
unitInfo: µg/mL
boundOperator: =
MIC: 16
//
molecule: C[C@@H]1C[C@H](C)CN(S(=O)(=O)c2ccc(C(=O)Nc3nnc(-c4ccc(Br)cc4)o3)cc2)C1 (mixture of isomers)
unitInfo: µg/mL
boundOperator: =
MIC: 4
//
molecule: CN(C)S(=O)(=O)c1ccc(C(=O)Nc2nnc(-c3ccc(Cl)cc3)o2)cc1
unitInfo: µg/mL
boundOperator: =
MIC: 64
//
molecule: CCN(CC)S(=O)(=O)c1ccc(C(=O)Nc2nnc(-c3ccc(Cl)cc3)o2)cc1
unitInfo: µg/mL
boundOperator: =
MIC: 16

---

Assay: Ratio of non toxic concentration for human Caco2 cells to MIC for methicillin-resistant Staphylococcus aureus ATCC 33592
Format: toxicity
Settings: Caco-2 cells

compound: C[C@@H]1C[C@H](C)CN(S(=O)(=O)c2ccc(C(=O)Nc3nnc(-c4cccs4)o3)cc2)C1 (mixture of isomers)
selectivity ratio: 63

---

Test system: Listeria monocytogenes
Assay: Bacteriostatic activity against Listeria monocytogenes ATCC 19115 after 20 hrs by broth microdilution method
Format: functional
Details: ATCC 19115, 20 h

molecule: C[C@@H]1C[C@H](C)CN(S(=O)(=O)c2ccc(C(=O)Nc3nnc(-c4cccc(C#N)c4)o3)cc2)C1 (mixture of isomers)
assaySystem: Listeria monocytogenes
MIC: 8 mg/L
//
molecule: C[C@@H]1C[C@H](C)CN(S(=O)(=O)c2ccc(C(=O)Nc3nnc(-c4ccc(F)cc4)o3)cc2)C1 (mixture of isomers)
assaySystem: Listeria monocytogenes
MIC: 4 mg/L
//
molecule: C#CCNS(=O)(=O)c1ccc(C(=O)Nc2nnc(-c3ccc(Cl)cc3)o2)cc1
assaySystem: Listeria monocytogenes
MIC: 64 mg/L
//
molecule: O=C(Nc1nnc(-c2ccc(Cl)cc2)o1)c1ccc(S(=O)(=O)N2CCCC2)cc1
assaySystem: Listeria monocytogenes
MIC: 16 mg/L

---

Experiment: Ratio of non toxic concentration for mouse J774 cells to MIC for methicillin-resistant Staphylococcus aureus ATCC 33592
Assay type: toxicity
measurementType: selectivity ratio

compound: C[C@@H]1C[C@H](C)CN(S(=O)(=O)c2ccc(C(=O)Nc3nnc(-c4cccs4)o3)cc2)C1 (mixture of isomers)
testResult: 63
